Target: h-NAAA (Homo sapiens, UniProt Q02083)
Construct: made in house; host or cells: HEK-293 cells stably overexpressing human NAAA; enzyme-enriched (lysosomal) lysate
Assay: Fluorogenic human-NAAA assay (h-NAAA, fluo.)
Format: biochemical
Details: h-NAAA (fluo.)
quantityName: h-NAAA inhibitory activity, in words

Cc1n[nH]c(C)c1S(=O)(=O)N1[C@@H]2CC[C@H]1C[C@H](Oc1cnccn1)C2: devoid of any activity
Cc1n[nH]cc1S(=O)(=O)N1CCC(Oc2cnccn2)CC1: devoid of any activity
O=S(=O)(c1cn[nH]c1)N1CCC(Oc2cnccn2)CC1: devoid of any activity

* * *

Biological target: h-NAAA (Homo sapiens, UniProt Q02083)
Construct: enzyme-enriched (lysosomal) lysate
Assay: Fluorogenic human-NAAA assay (h-NAAA, fluo.)
Settings: h-NAAA (fluo.), mean ± SD (n ≥ 3); n.a.: not active @50 μM (<10% inhibition)
pIC50: −log10 of the molar value.
Parameter threshold = 6. Response is 1.0 when pIC50 meets or exceeds it, else 0.0.

Does Cc1n[nH]c(C)c1S(=O)(=O)N1[C@@H]2CC[C@H]1C[C@@H](Oc1ccccc1)C2 [Compound 31] have a reported pIC50 of at least 6?
1.0

Does CCCOc1ccc(O[C@H]2C[C@H]3CC[C@@H](C2)N3S(=O)(=O)c2c(C)n[nH]c2C)cc1 [Compound 47] have a reported pIC50 of at least 6?
1.0

Does Cc1cccc(C)c1S(=O)(=O)N1CCC(Oc2cnccn2)CC1 [Compound 7] have a reported pIC50 of at least 6?
0.0

Does Cc1[nH]nc(C(C)C)c1S(=O)(=O)N1CCC(Oc2cnccn2)CC1 [Compound 11] have a reported pIC50 of at least 6?
1.0

Does CCOCc1ccc(O[C@H]2C[C@H]3CC[C@@H](C2)N3S(=O)(=O)c2c(C)n[nH]c2C)cc1 [Compound 48] have a reported pIC50 of at least 6?
1.0

Does CCOCc1cnc(O[C@H]2C[C@H]3CC[C@@H](C2)N3S(=O)(=O)c2c(C)n[nH]c2C)cn1 [Compound 50] have a reported pIC50 of at least 6?
1.0

Does Cc1n[nH]c(C)c1S(=O)(=O)N1[C@@H]2CC[C@H]1C[C@@H](Oc1cnccn1)C2 [Compound 20] have a reported pIC50 of at least 6?
1.0

Does Cc1cccc(OC2CC3CCC(C2)N3S(=O)(=O)c2c(C)n[nH]c2C)c1 (centres unmarked) [Compound 35] have a reported pIC50 of at least 6?
1.0

Does Cc1n[nH]c(C)c1S(=O)(=O)N1[C@@H]2CC[C@H]1C[C@@H](Oc1ccc(CCC(C)C)cc1)C2 [Compound 42] have a reported pIC50 of at least 6?
1.0

Does Cc1n[nH]c(C)c1S(=O)(=O)N1[C@@H]2COC[C@H]1C[C@@H](Oc1cnccn1)C2 [Compound 26] have a reported pIC50 of at least 6?
0.0

Does Cc1ccc(O[C@H]2C[C@H]3CC[C@@H](C2)N3S(=O)(=O)c2c(C)n[nH]c2C)cc1 [Compound 33] have a reported pIC50 of at least 6?
1.0

Does COc1ccc(O[C@H]2C[C@H]3CC[C@@H](C2)N3S(=O)(=O)c2c(C)n[nH]c2C)cc1 [Compound 44] have a reported pIC50 of at least 6?
1.0

Does Cc1n[nH]c(C)c1S(=O)(=O)N1[C@@H]2CCC[C@H]1C[C@@H](Oc1cnccn1)C2 [Compound 25] have a reported pIC50 of at least 6?
1.0

Does CCCc1n[nH]c(C)c1S(=O)(=O)N1CCC(Oc2cnccn2)CC1 [Compound 9] have a reported pIC50 of at least 6?
1.0

Does Cc1ccccc1O[C@H]1C[C@H]2CC[C@@H](C1)N2S(=O)(=O)c1c(C)n[nH]c1C [Compound 36] have a reported pIC50 of at least 6?
1.0

Does Cc1n[nH]c(C)c1S(=O)(=O)N1[C@@H]2CC[C@H]1C[C@@H](Oc1ccc(C(F)(F)F)cc1)C2 [Compound 43] have a reported pIC50 of at least 6?
1.0

Does CCCCCCc1ccc(O[C@H]2C[C@H]3CC[C@@H](C2)N3S(=O)(=O)c2c(C)n[nH]c2C)cc1 [Compound 41] have a reported pIC50 of at least 6?
1.0

Does Cc1n[nH]c(C)c1S(=O)(=O)N1C[C@H]2CC[C@@H](C1)[C@H]2Oc1cnccn1 [Compound 27] have a reported pIC50 of at least 6?
0.0

Does CCCCc1ccc(O[C@H]2C[C@H]3CC[C@@H](C2)N3S(=O)(=O)c2c(C)n[nH]c2C)cc1 [Compound 39] have a reported pIC50 of at least 6?
1.0

Does Cc1n[nH]c(C)c1S(=O)(=O)N(C)CCCOc1cnccn1 [Compound 19] have a reported pIC50 of at least 6?
0.0

Does Cc1[nH]nc(C(F)(F)F)c1S(=O)(=O)N1CCC(Oc2cnccn2)CC1 [Compound 14] have a reported pIC50 of at least 6?
0.0

Does CCc1n[nH]c(C)c1S(=O)(=O)N1CCC(Oc2cnccn2)CC1 [Compound 8] have a reported pIC50 of at least 6?
1.0

Does CCc1ccc(O[C@H]2C[C@H]3CC[C@@H](C2)N3S(=O)(=O)c2c(C)n[nH]c2C)cc1 [Compound 37] have a reported pIC50 of at least 6?
1.0

* * *

Molecular target: h-NAAA (Homo sapiens, UniProt Q02083)
Construct: enzyme-enriched (lysosomal) lysate
Sequence (Q02083 29-125 limits assumed): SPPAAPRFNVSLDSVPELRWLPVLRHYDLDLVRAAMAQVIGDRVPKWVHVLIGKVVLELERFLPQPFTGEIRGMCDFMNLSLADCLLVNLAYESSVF
Sequence (Q02083 126-359 limits assumed): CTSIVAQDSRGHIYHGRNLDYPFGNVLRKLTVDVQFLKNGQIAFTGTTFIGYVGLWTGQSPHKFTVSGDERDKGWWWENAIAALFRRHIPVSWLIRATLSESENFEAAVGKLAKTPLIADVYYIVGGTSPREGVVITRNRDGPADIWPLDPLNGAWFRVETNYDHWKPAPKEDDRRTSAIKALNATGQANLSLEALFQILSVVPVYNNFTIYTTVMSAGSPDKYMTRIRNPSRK
Assay: Fluorogenic human-NAAA assay (h-NAAA, fluo.)
Conditions: h-NAAA (fluo.), mean ± SD (n ≥ 3); n.a.: not active @50 μM (<10% inhibition)
Kindly state pIC50 for each of the entries shown.
# pIC50 = -log10(concentration in molar units)

Given Cc1n[nH]c(C)c1S(=O)(=O)N1[C@@H]2CC[C@H]1C[C@H](Oc1ccccc1)C2 , state its recorded pIC50.
6.18

Given CCCCc1n[nH]c(C)c1S(=O)(=O)N1CCC(Oc2cnccn2)CC1 , state its recorded pIC50.
6.04

Given Cc1n[nH]c(C)c1S(=O)(=O)N1C[C@H]2CCC[C@@H](C1)[C@@H]2Oc1cnccn1 , state its recorded pIC50.
6.16

Given Cc1[nH]nc(C(C)(C)C)c1S(=O)(=O)N1CCC(Oc2cnccn2)CC1 , state its recorded pIC50.
6.11

Given CCc1n[nH]c(CC)c1S(=O)(=O)N1CCC(Oc2cnccn2)CC1 , state its recorded pIC50.
5.95

Given Cc1n[nH]c(C)c1S(=O)(=O)N1[C@@H]2CC[C@H]1C[C@@H](Oc1ccc(C(C)C)cc1)C2 , state its recorded pIC50.
6.13

Hello, the source for this data is paper PMC8474119, in case you need it.
